- Subject Of Test: recombinant human DLL4 (C-terminally His-tagged extracellular domain, R&D Systems) (human, UniProt Q9NR61 25-522, biotinylated in the competition ELISA)
- Sequence (Q9NR61 25-522): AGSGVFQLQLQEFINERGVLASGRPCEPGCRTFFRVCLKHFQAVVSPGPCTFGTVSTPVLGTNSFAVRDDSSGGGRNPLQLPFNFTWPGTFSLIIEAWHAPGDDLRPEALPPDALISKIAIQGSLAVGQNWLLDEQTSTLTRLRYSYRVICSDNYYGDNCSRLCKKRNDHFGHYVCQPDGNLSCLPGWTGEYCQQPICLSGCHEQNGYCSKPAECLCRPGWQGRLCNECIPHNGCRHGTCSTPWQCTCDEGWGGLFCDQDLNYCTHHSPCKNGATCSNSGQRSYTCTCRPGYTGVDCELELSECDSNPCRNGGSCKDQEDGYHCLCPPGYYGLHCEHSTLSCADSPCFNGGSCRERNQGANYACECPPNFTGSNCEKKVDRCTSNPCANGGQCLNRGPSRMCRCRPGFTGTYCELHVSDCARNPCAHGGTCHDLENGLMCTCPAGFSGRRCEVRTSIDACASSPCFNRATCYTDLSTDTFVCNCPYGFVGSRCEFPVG
- Assay Text: cell-based or functional assay
Reported Inhibition (%), DLL4-mediated HUVEC proliferation assay by item:
Numeric answer only, unit % assumed.

DLLBII018 (VHH, not shown: small tags and cut ends) VHH: EVQLVESGGGLVQPGGSLRLSCAASGRTFSSYAMAWYRQAPGKEREYVAAIRWSGGTAYYADSVKGRFTISRDNAKNTVYLQMNSLRPEDTAVYYCANRAPDTRLAPYEYDHWGQGTLVTVSS
100

API: the following record is the query input.
Given the entry DLLBII129B05 (VHH, not shown: small tags and cut ends) VHH: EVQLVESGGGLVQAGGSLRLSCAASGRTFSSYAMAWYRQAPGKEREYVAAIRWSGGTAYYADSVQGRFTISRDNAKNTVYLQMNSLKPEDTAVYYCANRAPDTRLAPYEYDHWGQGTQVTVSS , report its measured Inhibition (%), DLL4-mediated HUVEC proliferation assay.
100
